# test protocol: NCI Yeast Anticancer Drug Screen. Data for the cln2 rad14 strain (AID 165);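 also: 0% = growth equal to vehicle treated cultures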
# condition details: S. cerevisiae cln2 rad14 strain, at 50.0 µM, hits give high values
About 79,000 compounds went through this panel and 15% of them were active in at least one assay; those are over-represented in the sample as a whole.
growth inhibition for assorted molecules
reported endpoint: growth inhibition (%)

{"molecule": "Cc1cccc2c(/C=C/c3ccc(N(C)C)cc3)ccnc12", "reported endpoint": "growth inhibition", "units of measure": "%", "recorded result": -22.2}
{"molecule": "COCc1cc(=O)c(OC)cn1CCO", "reported endpoint": "growth inhibition", "units of measure": "%", "recorded result": -63.1}
{"molecule": "CC(=O)OCC1C(OC(C)=O)C(OC(C)=O)C(n2cnc3c(N)ncnc32)N1C(C)=O (stereo unspecified)", "reported endpoint": "growth inhibition", "units of measure": "%", "recorded result": 11.4}
{"molecule": "O=C1NC2(CCN(CCc3ccccc3)CC2)Oc2ccccc21", "reported endpoint": "growth inhibition", "units of measure": "%", "recorded result": 17.6}
{"molecule": "COc1cccc2cc(C(C)=O)c(=O)oc12", "reported endpoint": "growth inhibition", "units of measure": "%", "recorded result": 3}
{"molecule": "COc1cccc(NCC(=O)Nn2c(-c3ccccc3)nc3ccccc3c2=O)c1", "reported endpoint": "growth inhibition", "units of measure": "%", "recorded result": -3.05}

----------
# test protocol: NCI Yeast Anticancer Drug Screen. Data for the cln2 rad14 strain (AID 165);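 also: 0% = growth equal to vehicle treated cultures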
# condition details: S. cerevisiae cln2 rad14 strain, at 50.0 µM, hits give high values
The panel holds about 79,000 compounds, 15% with a hit somewhere; the sample as a whole holds those more often.

{"molecule": "CCOC(=O)c1ccc(-c2ccccc2)cc1", "growth inhibition / %": -7.25}
{"molecule": "CCN1c2nc3ccccc3nc2N(CC)c2nc3ccccc3nc21", "growth inhibition / %": 6.55}
{"molecule": "CCN=C1SCCCS1", "growth inhibition / %": -19.5}
{"molecule": "O=C(O)CCC(NC(=O)CCC(NC(=O)OCc1ccccc1)C(=O)OCc1ccccc1)C(=O)OCc1ccccc1 (configuration not stated)", "growth inhibition / %": 9.2}
{"molecule": "Cn1c(=O)ccc2c1nc1ccccc1[n+]2[O-]", "growth inhibition / %": -30.8}
{"molecule": "O=C1CSC(c2cccs2)N1c1nncs1 (configuration not stated)", "growth inhibition / %": 14.6}
{"molecule": "NC1C2C3C=CC(C3)C12 (configuration not stated)", "growth inhibition / %": -28.9}

----------
# test protocol: NCI Yeast Anticancer Drug Screen. Data for the sgs1 mgt1 strain (AID 161);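 also: 0% = growth of cultures given vehicle only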
# condition details: S. cerevisiae sgs1 mgt1 strain, at 50.0 µM, hits give high values
This is part of a sample that, as a whole, favours compounds with a hit. Of some 79,000 tested, about 15% had one in any assay.

{"compound": "CC12CC3C(CC1O2)C3(C)C (stereo not drawn)", "units of measure": "%", "growth inhibition": -32.8}
{"compound": "ClC1CC2CC1C1CCCC21 (stereo not drawn)", "units of measure": "%", "growth inhibition": -16.1}
{"compound": "CN(C)C(=S)/N=C(\\N)N(C)C", "units of measure": "%", "growth inhibition": -3.8}
{"compound": "Cc1cccc(C2(C(=O)O)CCCC2)c1", "units of measure": "%", "growth inhibition": 15.9}
{"compound": "CO[C@@]12C[C@@H](C)C3=CCC(C)=C3CC1=C(C)C(=O)O2", "units of measure": "%", "growth inhibition": 16.6}
{"compound": "COC(=O)C1=C(C)N(NC(=O)c2cccc(Cl)c2)C(C)(O)C12CCOC2=O (stereo not drawn)", "units of measure": "%", "growth inhibition": 4.15}
{"compound": "COc1cc2c(c(C3(O)C(=O)N(C)c4ccccc43)c1OC)OCO2 (stereo not drawn)", "units of measure": "%", "growth inhibition": 12.8}
{"compound": "NCCCc1c(-c2ccccc2)nc(N)[nH]c1=O", "units of measure": "%", "growth inhibition": -35.5}
{"compound": "CC(/C=C1\\N=C(c2ccccc2)OC1=O)=C\\c1ccccc1", "units of measure": "%", "growth inhibition": -33.5}
{"compound": "COc1ccc(CCC(C)(O)c2ccccc2)cc1 (stereo not drawn)", "units of measure": "%", "growth inhibition": 11.2}
{"compound": "Cn1c(=O)c(-c2ccccc2)cc2ccccc21", "units of measure": "%", "growth inhibition": -3.85}
{"compound": "Cc1ccccc1NC(=O)Nc1ccccc1C", "units of measure": "%", "growth inhibition": 3.45}
{"compound": "CCn1c(=O)ccc2ccc(N(CCO)CCO)nc21", "units of measure": "%", "growth inhibition": -0.15}

----------
# test protocol: NCI Yeast Anticancer Drug Screen. Data for the sgs1 mgt1 strain (AID 161);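 also: 0% = growth of cultures given vehicle only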
# condition details: S. cerevisiae sgs1 mgt1 strain, at 50.0 µM, hits give high values
The panel holds about 79,000 compounds, 15% with a hit somewhere; the sample as a whole holds those more often.
growth inhibition for assorted compounds

{"compound": "CCN=C(C#N)NCC", "growth inhibition / %": 20.9}
{"compound": "CN(C)Cc1cc(C(=O)/C=C/c2ccc(Cl)cc2Cl)cc(CN(C)C)c1O", "growth inhibition / %": 8.55}
{"compound": "O=C1Nc2ccccc2Nc2nc3cccccc-3c21", "growth inhibition / %": -2.4}
{"compound": "CCOC(=O)C1/C(=N\\N=C2\\c3c(nnp3N(CCOS(C)(=O)=O)CCOS(C)(=O)=O)C(C(=O)OCC)C(c3ccc(OC(C)=O)cc3)C2C(=O)OCC)c2c(nnp2N(CCOS(C)(=O)=O)CCOS(C)(=O)=O)C(C(=O)OCC)C1c1ccc(OC(C)=O)cc1 (stereo not given)", "growth inhibition / %": -3.85}
{"compound": "O=C(Nc1ccc(Cl)cc1)OCCSc1nc2ccccc2s1", "growth inhibition / %": 21.5}
{"compound": "O=C(NCCCNCCCCNCCCNC(=O)C(F)(F)F)C(F)(F)F", "growth inhibition / %": 6.6}
{"compound": "CCCC(=O)Oc1ccc(C(C)(C)C)cc1C", "growth inhibition / %": 3.4}
{"compound": "Cc1ccc(NC2=CC(=O)c3ccccc3C2=O)cc1", "growth inhibition / %": 17.8}
{"compound": "CCCCC(C(N)=O)C(C)(C)C(=O)O (stereo not given)", "growth inhibition / %": 4.9}
{"compound": "OCC1OC(OC2CCCCC2)C(O)C(O)C1O (stereo not given)", "growth inhibition / %": 21.9}

----------
# test protocol: NCI Yeast Anticancer Drug Screen. Data for the cln2 rad14 strain (AID 165);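 also: 0% = growth equal to vehicle treated cultures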
# condition details: S. cerevisiae cln2 rad14 strain, at 50.0 µM, hits give high values
The panel holds about 79,000 compounds, 15% with a hit somewhere; the sample as a whole holds those more often.
growth inhibition for assorted compounds

{"compound": "COc1ccc2c(c1)NC(c1ccccc1C(=O)O)c1cccn1-2 (configuration not stated)", "units of measure": "%", "growth inhibition": 5.75}
{"compound": "COc1cc(C(=O)C/C(CCCC(=O)Nc2ccccc2[N+](=O)[O-])=N/NC(=O)c2cc3ccccc3cc2O)ccc1O", "units of measure": "%", "growth inhibition": 23.3}
{"compound": "CSc1n[nH]c(-c2cccs2)n1", "units of measure": "%", "growth inhibition": -8.3}
{"compound": "CC(=O)OC1CC2(c3ccccc3)C(=O)c3ccccc3N2O1 (configuration not stated)", "units of measure": "%", "growth inhibition": -12.7}
{"compound": "OCC1OC(OC2CCCCC2)C(O)C(O)C1O (configuration not stated)", "units of measure": "%", "growth inhibition": -5.05}
{"compound": "COc1cc(OC)c(NC(=O)C(Cl)(Cl)Cl)cc1Cl", "units of measure": "%", "growth inhibition": -17.4}
{"compound": "C=CCNC(=S)N/C=C(/C#N)C(=O)OC", "units of measure": "%", "growth inhibition": 21.6}
{"compound": "CC(N)(Cc1c[nH]c2ccccc12)C(=O)O (configuration not stated)", "units of measure": "%", "growth inhibition": -26.9}
{"compound": "COc1ccc(/C=C/C(=O)c2ccc(Cl)s2)cc1", "units of measure": "%", "growth inhibition": -34.3}
{"compound": "COC(=O)/C=C/CCCC1CCCCC1", "units of measure": "%", "growth inhibition": 0.45}
{"compound": "CC(=O)CC(C)(C)S(=O)(=O)Cc1ccccc1", "units of measure": "%", "growth inhibition": -5.85}
{"compound": "CC(=O)Nc1ccc2c(=O)cc[nH]c2n1", "units of measure": "%", "growth inhibition": 1.9}

----------
growth inhibition for assorted molecules
# test protocol: NCI Yeast Anticancer Drug Screen. Data for the rad50 strain (AID 155);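 also: 0% = growth of vehicle-only cultures of the same strain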
# condition details: S. cerevisiae rad50 strain growth inhibition; at 50.0 µM; hits give high values
The panel holds about 79,000 compounds, 15% with a hit somewhere; the sample as a whole holds those more often. Active and inactive are the calls of the source. Rule as the data show it: active = growth inhibition above about 70%; inactive = the rest.

{"molecule": "COc1ccc(N=Cc2ccc(OC(=O)c3ccccc3)c(OC)c2)cc1", "growth inhibition": "2.15% (inactive)"}
{"molecule": "Cc1ccc2nc(C)ccc2c1", "growth inhibition": "-38.2% (inactive)"}
{"molecule": "CNC(=O)OCc1c(C)oc(-c2ccc(Cl)c(Cl)c2)c1COC(=O)NC", "growth inhibition": "47.5% (inactive)"}
{"molecule": "C1C[OH+]CCNCC[OH+]CC[OH+]CCN1.[Cl-].[Pt+4]", "growth inhibition": "-14.5% (inactive)"}
{"molecule": "NC(Cc1ccc(O)c(O)c1)P(=O)(O)O (stereo not drawn)", "growth inhibition": "-72.8% (inactive)"}
{"molecule": "c1ccc(-c2nnc(-c3ccccn3)c3c2C[C@@H]2C[C@@H]4Cc5c(-c6ccccn6)nnc(-c6ccccn6)c5[C@@H]4[C@H]32)nc1", "growth inhibition": "-4.95% (inactive)"}
{"molecule": "CCOC(=O)C1=C(Nc2ccc(Cl)cc2Cl)OC/C1=N\\NS(=O)(=O)c1ccc(C)cc1", "growth inhibition": "-3.95% (inactive)"}
{"molecule": "CC1(C)CC(=O)C(/C=N/C(=S)NC2CCCCC2)=C(O)C1", "growth inhibition": "-13.2% (inactive)"}
{"molecule": "COC(=O)CCC(CCC(=O)O)([N+](=O)[O-])[N+](=O)[O-]", "growth inhibition": "2.05% (inactive)"}
{"molecule": "Cc1cccc(-c2c3ccccc3cc3ccccc23)c1", "growth inhibition": "6.35% (inactive)"}
{"molecule": "CC(C)CCCC(C)[C@H]1CC[C@H]2[C@@H]3CC[C@H]4C[C@@H](CCC=C(c5cc(Cl)c(O)c(C(=O)OC(C)C)c5)c5cc(Cl)c(O)c(C(=O)OC(C)C)c5)CC[C@]4(C)[C@H]3CC[C@]12C (stereo partly drawn)", "growth inhibition": "17.7% (inactive)"}
{"molecule": "CC(C)(Cc1ccccc1)NC1=NCCO1", "growth inhibition": "-31.9% (inactive)"}
{"molecule": "O=S(O)CCCCSSCC(O)CO (stereo not drawn)", "growth inhibition": "22.5% (inactive)"}
{"molecule": "CN(C)c1ccc2c(c1)Cc1cc(NC(=O)CCC(=O)O)ccc1-2", "growth inhibition": "8.7% (inactive)"}
{"molecule": "O=C(Nc1nc(C23CC4CC(CC(C4)C2)C3)cs1)c1c(O)c2ccccc2[nH]c1=O", "growth inhibition": "-29.2% (inactive)"}
{"molecule": "CC(=O)NC(CC(=O)O)C(=O)Nc1ccccc1 (stereo not drawn)", "growth inhibition": "13.8% (inactive)"}
{"molecule": "N#CCN1CCOCC1", "growth inhibition": "31.5% (inactive)"}
{"molecule": "COc1cc(C(=O)NC(=S)NC2CCCCCCCCCCC2)cc(OC)c1OC", "growth inhibition": "8.1% (inactive)"}
{"molecule": "CNC1(C(=O)O)CCCCC1", "growth inhibition": "-0.35% (inactive)"}
{"molecule": "CCC(=O)/C=C/C1=C(C)CCCC1(C)C", "growth inhibition": "-9.95% (inactive)"}
{"molecule": "CC(=O)/C(=C/n1c(=S)[nH]c2ccccc21)C(=O)Nc1ccc([N+](=O)[O-])cc1", "growth inhibition": "-17.5% (inactive)"}
{"molecule": "CC(=O)Cc1ccco1", "growth inhibition": "14.5% (inactive)"}
{"molecule": "CCOC(=O)C(=CC(CC)CC)C(=O)OCC", "growth inhibition": "8.7% (inactive)"}

Data provenance: PubChem BioAssay (NCI)
